Source listed as paper PMC11191095.

tested on: C. tropicalis NCPF 8760; assay: microbe, parasite or virus in culture; assay type: cell-based; details: C. tropicalis NCPF 8760; 90% growth inhibition; RPMI 1640 + 2% glucose, 37 °C, 20 h
Where a SMILES comes first, the peptide text is derived from it.
This section presents compounds with their documented Modal MIC90 values.

Here are 3 compounds together with their reported answers.
compound="CC(C)C[C@H](NC(=O)[C@H](CCCCN)NC(=O)[C@H](CCCCN)NC(=O)[C@H](C)NC(=O)[C@H](CC(C)C)NC(=O)[C@H](CCCCN)NC(=O)[C@H](CO)NC(=O)[C@H](CCCCN)NC(=O)[C@H](Cc1c[nH]c2ccccc12)NC(=O)[C@H](C)NC(=O)[C@H](CCCCN)NC(=O)[C@H](CCCCN)NC(=O)[C@H](CC(C)C)NC(=O)[C@H](Cc1ccccc1)NC(=O)[C@H](CO)NC(=O)CN)C(N)=O [PS-PB-16a] (H-GSFLKKAWKSKLAKKL-NH2)" measured_value="> 128 µg/mL"
compound="CC[C@H](C)[C@H](N)C(=O)N[C@@H](CCCNC(=N)N)C(=O)NCC(=O)N[C@@H](Cc1ccc(O)cc1)C(=O)N[C@@H](CCCCN)C(=O)NCC(=O)NCC(=O)N[C@@H](Cc1ccc(O)cc1)C(=O)N[C@@H](CS)C(=O)N[C@@H](CCCCN)C(N)=O [Os(3-12)a] (H-IRGYKGGYCK-NH2)" measured_value="> 128 µg/mL"
compound="C[C@H](NC(=O)CNC(=O)[C@H](CCCCN)NC(=O)[C@@H](N)CS)C(=O)N[C@@H](Cc1ccccc1)C(=O)N[C@@H](CCCCN)C(=O)N[C@@H](CCC(N)=O)C(=O)N[C@H](C(=O)N[C@@H](CS)C(=O)N[C@@H](CCCCN)C(=O)N[C@@H](CS)C(=O)N[C@@H](Cc1ccc(O)cc1)C(N)=O)[C@@H](C)O [Os(11-22)a] (H-CKGAFKQTCKCY-NH2; N-terminus assumed)" measured_value="> 128 µg/mL"

Here is another compound to look at.
Data request: Look up and state reported Modal MIC90 for CC(C)C[C@H](NC(=O)[C@H](CCCCN)NC(=O)[C@H](CO)NC(=O)[C@H](CCCCN)NC(=O)[C@@H](N)Cc1c[nH]c2ccccc12)C(=O)N[C@@H](C)C(=O)N[C@@H](CCCCN)C(=O)N[C@@H](CCCCN)C(N)=O [PS-PB-8a] (H-WKSKLAKK-NH2)
Data returned: > 128 µg/mL

* * *

tested on: S. aureus (MRSA) 1199B; test: microbe, parasite or virus in culture; type: cell-based, Staphylococcus aureus; settings: S. aureus (MRSA) 1199B (R); shown in µM
Where a SMILES comes first, the peptide text is derived from it.
REPORTED_ENDPOINT: Modal MIC

Data request: Look up and state reported Modal MIC for CC[C@H](C)[C@H](NC(=O)[C@H](CCCCN)NC(=O)[C@H](CC(C)C)NC(=O)CNC(=O)[C@H](C)NC(=O)[C@H](CCCCN)NC(=O)[C@H](CC(C)C)NC(=O)[C@H](C)NC(=O)[C@H](CCCCN)NC(=O)CNC(=O)[C@H](CC(C)C)NC(=O)[C@@H](N)Cc1ccccc1)C(=O)NCC(=O)N[C@@H](CO)C(=O)N[C@@H](Cc1c[nH]cn1)C(=O)N[C@@H](CC(C)C)C(N)=O [CPF-P2a] (H-FLGKALKAGLKIGSHL-NH2)
Data returned: > 74 µM

Data request: Look up and state reported Modal MIC for CC(C)C[C@H](NC(=O)[C@H](CCCCN)NC(=O)[C@H](CO)NC(=O)[C@H](CCCCN)NC(=O)[C@H](Cc1c[nH]c2ccccc12)NC(=O)[C@H](C)NC(=O)[C@H](CCCCN)NC(=O)[C@@H](N)CCCCN)C(=O)N[C@@H](C)C(=O)N[C@@H](CCCCN)C(=O)N[C@@H](CCCCN)C(=O)N[C@@H](CC(C)C)C(=O)N[C@@H](CCCNC(=N)N)C(=O)N[C@@H](C)C(=O)N[C@@H](CCCCN)C(=O)NCC(=O)N[C@@H](CCCCN)C(N)=O [PS-PB-14a] (H-KKAWKSKLAKKLRAKGK-NH2)
Data returned: > 63.8 µM
